Just for reference, the supplement of paper PMC11061612 is where these values come from.

System: KYSE-410 (Esophageal Squamous Cell Carcinoma)
Test: combination Emax (second highest fraction inhibited in the dose matrix, 72 h); higher = more inhibition; extreme values may be limits of the assay
Values of combination Emax greater than or equal to 0.4 map to T; values below map to F.

Is it the case that Cc1cc2ncnn2cc1Nc1ncc2c(n1)n(C1CCOCC1)c(=O)n2C [AZD7648] + C[C@@H]1COCCN1C2=NC(=NC(=C2)C3(CC3)[S@](=N)(=O)C)C4=C5C=CNC5=NC=C4 [AZD6738] (first compound max 10 µM, 7x7, partner max 10 µM) has combination Emax reaching or exceeding 0.4?
F

Is it the case that Cc1cc2ncnn2cc1Nc1ncc2c(n1)n(C1CCOCC1)c(=O)n2C [AZD7648] + C=CCn1c(=O)c2cnc(Nc3ccc(N4CCN(C)CC4)cc3)nc2n1-c1cccc(C(C)(C)O)n1 [AZD1775] (first compound max 10 µM, partner max 1 µM) has combination Emax reaching or exceeding 0.4?
F

Is it the case that CN(CCO)CC[C@H](CSc1ccccc1)Nc1ccc(S(=O)(=O)NC(=O)c2ccc(N3CCC([C@@H](O)c4ccccc4-c4ccc(Cl)cc4)CC3)cc2)cc1S(=O)(=O)C(F)(F)F [AZD4320] + CN(C)CCCOc1ccc(-c2ccc3ncc4c(c3c2)n(C2CCOCC2)c(=O)n4C)cn1 [AZD0156] (first compound max 1 µM, 7x7, partner max 1 µM) has combination Emax reaching or exceeding 0.4?
F

Is it the case that C=CCn1c(=O)c2cnc(Nc3ccc(N4CCN(C)CC4)cc3)nc2n1-c1cccc(C(C)(C)O)n1 [AZD1775] + C[C@@H]1COCCN1C2=NC(=NC(=C2)C3(CC3)[S@](=N)(=O)C)C4=C5C=CNC5=NC=C4 [AZD6738] (first compound max 1 µM, partner max 10 µM) has combination Emax reaching or exceeding 0.4?
T

Is it the case that CN(C)CCCOc1ccc(-c2ccc3ncc4c(c3c2)n(C2CCOCC2)c(=O)n4C)cn1 [AZD0156] + O=C(c1cc(Cc2n[nH]c(=O)c3ccccc23)ccc1F)N1CCN(C(=O)C2CC2)CC1 [Olaparib] (first compound max 3 µM, partner max 3 µM) has combination Emax reaching or exceeding 0.4?
F

Is it the case that CC1(C)CCC(CN2CCN(c3ccc(C(=O)NS(=O)(=O)c4ccc(NCC5CCOCC5)c([N+](=O)[O-])c4)c(Oc4cnc5[nH]ccc5c4)c3)CC2)=C(c2ccc(Cl)cc2)C1 [Venetoclax] + CN(C)CCCOc1ccc(-c2ccc3ncc4c(c3c2)n(C2CCOCC2)c(=O)n4C)cn1 [AZD0156] (first compound max 1 µM, 7x7, partner max 1 µM) has combination Emax reaching or exceeding 0.4?
F
